Target: Sigma intracellular receptor 2 (Rattus norvegicus, UniProt Q5U3Y7)
Sequence (Q5U3Y7 whole entry): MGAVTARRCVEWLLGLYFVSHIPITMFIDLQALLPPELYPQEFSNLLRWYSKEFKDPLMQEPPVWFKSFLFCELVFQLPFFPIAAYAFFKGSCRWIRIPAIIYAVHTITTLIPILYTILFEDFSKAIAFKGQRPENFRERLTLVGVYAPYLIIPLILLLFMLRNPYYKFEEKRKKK
Test: Displacement of [3H]di-o-tolylguanidine from rat liver membrane sigma 2 receptor assessed as inhibition constant measured after 120 mins by scintillation counting method
Give pKi for every item shown.
One number for each entry, as −log10 of the molar value.

smiles_str=C[C@@H]1CC[C@@H]([C@@](C)(O)CN2CCC(Cc3ccccc3)CC2)[C@@H](O)C1 recorded_result=6.76
smiles_str=COc1ccc(CC2CCN(C[C@](C)(O)[C@@H]3CC[C@@H](C)C[C@H]3O)CC2)cc1 recorded_result=7.12

Give Sigma intracellular receptor 2 (Rattus norvegicus, UniProt Q5U3Y7) pKi for C[C@@H]1CC[C@@H]2[C@@H](C1)OCO[C@@]2(C)CNCCCCc1ccccc1
7.07
